- Target Or Test System: human CB2 receptor (Homo sapiens)
- Construct: expressed in transfected cells; host or cells: SK-N-MC cells, stably transfected with pcDNA3 CB-2 (human); semi-purified membrane pellet
- Assay Method Text: Cannabinoid CB2 receptor binding assay ([3H]-CP-55,940 displacement, SK-N-MC cell membranes)
- Conditions Used: 1.5 h; test concentration of 0.2 μM; radioligand CP-55,940 0.2 nM; read-out: Cannabinoid CB2 Receptor Binding, percent inhibition
- Method: Binding Assay for CB1 or CB2 Agonists or Inverse Agonists The human CB1 and CB2 receptors were stably expressed in SK-N-MC cells transfected with pcDNA3 CB-1 (human) or pcDNA3 CB-2 (human). […] On the day of the assay, the pellet was thawed on ice and diluted in assay buffer (50 mM Tris-HCl, 5 mM MgCl2, 2.5 mM EDTA, 0.5 mg/mL fatty acid free bovine serum albumin, pH 7.5). […] Non-specific binding was measured in wells containing W1N 55,212 (10 uM). […]
The compounds listed here are annotated with their inhibition at 0.2 µM.
Supply the numeric figure in %, leaving out any unit text.

Below, each entry is followed by its recorded inhibition at 0.2 µM result.
Line Notation	inhibition at 0.2 µM [%]
Cc1c(C(=O)N[C@@H](C)C2CCCCC2)nn(-c2ccc(Cl)cc2Cl)c1-c1cccs1	1
Cc1c(C(=O)N[C@H](C)C2CCCCC2)nn(-c2ccc(Cl)cc2Cl)c1-c1cccs1	15
CCc1c(C(=O)NN2CCCCC2)nn(-c2ccc(Cl)cc2Cl)c1-c1ccc(Br)s1	29
Cc1c(C(=O)N[C@@H](C)C2CCCCC2)nn(-c2ccc(Cl)cc2Cl)c1-c1cc(Br)cs1	49
Cc1c(C(=O)N[C@@H](C)c2ccccc2)nn(-c2ccc(Cl)cc2Cl)c1-c1cc(Br)cs1	47
CCc1c(C(=O)N[N+]2(C)CCCCC2)nn(-c2ccc(Cl)cc2Cl)c1-c1ccc(Br)s1	0
Cc1c(C(=O)NN2CCCCC2=O)nn(-c2ccc(Cl)cc2Cl)c1-c1ccc(Cl)s1	15

Shift focus to the following entry.
What does the data say about its inhibition at 0.2 µM? Entry: "Cc1c(C(=O)NN2CCCCC2)nn(-c2ccc(Cl)cc2Cl)c1-c1cc(Br)cs1"
53

* * *

- Target Or Test System: human CB1 receptor (Homo sapiens)
- Construct: expressed in transfected cells; host or cells: SK-N-MC cells, stably transfected with pcDNA3 CB-1 (human); semi-purified membrane pellet
- Assay Method Text: Cannabinoid CB1 receptor binding assay ([3H]-CP-55,940 displacement, SK-N-MC cell membranes)
The compounds listed here are annotated with their IC50.

Line Notation	Measured Metric	Obs Value
C[C@@H](NC(=O)c1nn(-c2ccc(Cl)cc2Cl)c(-c2ccc(Cl)s2)c1C#N)C1CCCCC1	IC50	15 nM
Cc1c(C(=O)NN2CCCCC2)nn(-c2ccc(Cl)cc2Cl)c1-c1ccc(Br)s1	IC50	37 nM
Cc1c(C(=O)N[C@@H](C)c2ccccn2)nn(-c2ccc(Cl)cc2Cl)c1-c1ccc(Cl)s1	IC50	38 nM
Cc1c(C(=O)N[C@H](C)c2ccccc2)nn(-c2ccc(Cl)cc2Cl)c1-c1ccc(Cl)s1	IC50	27 nM

What does the data say about its IC50? Entry: "Cc1c(C(=O)N[C@@H](C)C2CCCCC2)nn(-c2ccc(Cl)cc2Cl)c1-c1ccc(I)s1"
18 nM

Moving on to "Cc1c(C(=O)N[C@@H](C)C2CCCCC2)nn(-c2ccc(Cl)cc2Cl)c1-c1ccc(Cl)s1"
15 nM

Moving on to "Cc1c(C(=O)N[C@@H](C)c2ccccc2)nn(-c2ccc(Cl)cc2Cl)c1-c1ccc(I)s1"
17 nM

Moving on to "CCc1c(C(=O)NN2CCCCC2)nn(-c2ccc(Cl)cc2Cl)c1-c1ccc(Br)s1"
13 nM

Moving on to "Cc1c(C(=O)NN2CCCCC2)nn(-c2ccc(Cl)cc2Cl)c1-c1ccc(I)s1"
17 nM

Moving on to "CCc1c(C(=O)NN2CCCCC2)nn(-c2ccc(Cl)cc2Cl)c1-c1ccc(Cl)s1"
12 nM

* * *

- Target Or Test System: human CB2 receptor (Homo sapiens, UniProt P34972)
- Construct: expressed in transfected cells; host or cells: SK-N-MC cells, stably transfected with pcDNA3 CB-2 (human); semi-purified membrane pellet
- Sequence (P34972 whole entry): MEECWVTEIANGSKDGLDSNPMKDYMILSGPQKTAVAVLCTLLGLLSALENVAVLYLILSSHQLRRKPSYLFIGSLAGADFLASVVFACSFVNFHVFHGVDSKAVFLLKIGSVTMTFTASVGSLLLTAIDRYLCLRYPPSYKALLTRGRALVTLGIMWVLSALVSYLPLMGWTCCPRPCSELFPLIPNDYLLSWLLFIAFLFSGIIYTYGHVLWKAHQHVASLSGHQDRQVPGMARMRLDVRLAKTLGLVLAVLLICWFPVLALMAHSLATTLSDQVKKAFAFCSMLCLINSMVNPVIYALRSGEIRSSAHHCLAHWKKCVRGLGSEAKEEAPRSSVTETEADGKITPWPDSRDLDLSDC
- Assay Method Text: Cannabinoid CB2 receptor binding assay ([3H]-CP-55,940 displacement, SK-N-MC cell membranes)
- Conditions Used: 1.5 h; test concentration of 0.2 μM; radioligand CP-55,940 0.2 nM; read-out: Cannabinoid CB2 Receptor Binding, percent inhibition
The compounds listed here are annotated with their inhibition at 0.2 µM.
Supply the numeric figure in %, leaving out any unit text.

Compound	Target Or Test System	Measured Metric	Obs Value
C[C@@H](NC(=O)c1nn(-c2ccc(Cl)cc2Cl)c(-c2cccs2)c1C#N)C1CCCCC1 [Cpd 18]	human CB2 receptor (Homo sapiens, UniProt P34972)	inhibition at 0.2 µM	21

What does the data say about its inhibition at 0.2 µM? Entry: Cc1c(C(=O)NN2CCCCC2)nn(-c2ccc(Cl)cc2Cl)c1-c1ccc(I)s1 [Cpd 29]
55

Moving on to Cc1c(C(=O)N[C@@H](C)c2ccccn2)nn(-c2ccc(Cl)cc2Cl)c1-c1cc(Br)cs1 [Cpd 47]
46

Moving on to Cc1c(C(=O)NN2CC3CCCC3C2)nn(-c2ccc(Cl)cc2Cl)c1-c1cccs1 (centres unmarked) [Cpd 11]
0

Moving on to Cc1c(C(=O)N[C@H](C)c2ccccc2)nn(-c2ccc(Cl)cc2Cl)c1-c1cccs1 [Cpd 6]
8

Moving on to C[C@@H](NC(=O)c1nn(-c2ccc(Cl)cc2Cl)c(-c2cccs2)c1C#N)c1ccccc1 [Cpd 16]
17

Moving on to Cc1ccc(-c2c(C)c(C(=O)N[C@H](C)C3CCCCC3)nn2-c2ccc(Cl)cc2Cl)o1 [Cpd 57]
28

Moving on to C[C@@H](NC(=O)c1nn(-c2ccc(Cl)cc2Cl)c(-c2ccc(Cl)s2)c1C#N)c1ccccc1 [Cpd 25]
13

* * *

- Target Or Test System: human CB1 receptor (Homo sapiens)
- Construct: expressed in transfected cells; host or cells: SK-N-MC cells, stably transfected with pcDNA3 CB-1 (human); semi-purified membrane pellet
- Assay Method Text: Cannabinoid CB1 receptor binding assay ([3H]-CP-55,940 displacement, SK-N-MC cell membranes)
- Conditions Used: 1.5 h, read-out: Cannabinoid CB1 Receptor Binding, percent inhibition
The compounds listed here are annotated with their inhibition at 0.2 µM.
Include the unit after the number when you answer.

Below, each entry is followed by its recorded inhibition at 0.2 µM result.
Line Notation	Target Or Test System	Obs Value
CCc1c(C(=O)NN2CCC(O)CC2)nn(-c2ccc(Cl)cc2Cl)c1-c1ccc(Br)s1	human CB1 receptor (Homo sapiens)	63%
Cc1c(C(=O)N[C@@H](C)c2ccccn2)nn(-c2ccc(Cl)cc2Cl)c1-c1ccc(F)s1	human CB1 receptor (Homo sapiens)	61%
Cc1c(C(=O)N[C@@H](C)c2ccccn2)nn(-c2ccc(Cl)cc2Cl)c1-c1cc(Br)cs1	human CB1 receptor (Homo sapiens)	56%
Cc1c(C(=O)N[C@H](C)C2CCCCC2)nn(-c2ccc(Cl)cc2Cl)c1-c1cccs1	human CB1 receptor (Homo sapiens)	43%
Cc1ccc(-c2c(C)c(C(=O)N[C@H](C)c3ccccc3)nn2-c2ccc(Cl)cc2Cl)o1	human CB1 receptor (Homo sapiens)	58%
Cc1c(C(=O)N[C@@H](C)C2CCCCC2)nn(-c2ccc(Cl)cc2Cl)c1-c1cccs1	human CB1 receptor (Homo sapiens)	34%
Cc1c(C(=O)NN2CCC(O)CC2)nn(-c2ccc(Cl)cc2Cl)c1-c1ccc(Cl)s1	human CB1 receptor (Homo sapiens)	27%

What does the data say about its inhibition at 0.2 µM? Entry: "C[C@H](NC(=O)c1nn(-c2ccc(Cl)cc2Cl)c(-c2cccs2)c1C#N)c1ccccc1"
45%

* * *

- Target Or Test System: human CB1 receptor (Homo sapiens, UniProt P21554)
- Construct: expressed in transfected cells; host or cells: SK-N-MC cells, stably transfected with pcDNA3 CB-1 (human); semi-purified membrane pellet
- Sequence (P21554 whole entry): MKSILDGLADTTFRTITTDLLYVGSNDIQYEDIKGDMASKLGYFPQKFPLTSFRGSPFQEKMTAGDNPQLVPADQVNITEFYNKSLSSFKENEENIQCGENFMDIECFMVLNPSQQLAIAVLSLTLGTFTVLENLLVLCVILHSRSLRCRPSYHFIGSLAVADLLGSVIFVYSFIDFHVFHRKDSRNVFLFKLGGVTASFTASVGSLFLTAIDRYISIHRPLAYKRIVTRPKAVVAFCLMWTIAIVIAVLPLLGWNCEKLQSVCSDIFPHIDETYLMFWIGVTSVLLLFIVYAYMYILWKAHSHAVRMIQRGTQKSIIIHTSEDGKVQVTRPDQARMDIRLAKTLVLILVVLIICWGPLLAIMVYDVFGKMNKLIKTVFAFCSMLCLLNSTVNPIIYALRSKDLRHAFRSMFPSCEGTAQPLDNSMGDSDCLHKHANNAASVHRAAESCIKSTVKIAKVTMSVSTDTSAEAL
- Assay Method Text: Cannabinoid CB1 receptor binding assay ([3H]-CP-55,940 displacement, SK-N-MC cell membranes)
The compounds listed here are annotated with their IC50.
Supply the numeric figure in nM, leaving out any unit text.

Below, each entry is followed by its recorded IC50 result.
Line Notation	Unit String	IC50
CCc1c(C(=O)N[C@@H](C)C2CCCCC2)nn(-c2ccc(Cl)cc2Cl)c1-c1ccc(Br)s1	nM	8
Cc1c(C(=O)N[C@H](C)C2CCCCC2)nn(-c2ccc(Cl)cc2Cl)c1-c1ccc(Cl)s1	nM	74
Cc1c(C(=O)N[C@@H](C)c2ccccn2)nn(-c2ccc(Cl)cc2Cl)c1-c1ccc(I)s1	nM	31

What does the data say about its IC50? Entry: "CCc1c(C(=O)N[C@@H](C)c2ccccc2)nn(-c2ccc(Cl)cc2Cl)c1-c1ccc(Br)s1"
11
